This collection of values is drawn from paper doi:10.1101/538157v1.

- Experimental System: CAMKK2-KD (kinase domain of CAMKK2) (Homo sapiens, UniProt Q96RR4)
- Sequence (Q96RR4 161-449): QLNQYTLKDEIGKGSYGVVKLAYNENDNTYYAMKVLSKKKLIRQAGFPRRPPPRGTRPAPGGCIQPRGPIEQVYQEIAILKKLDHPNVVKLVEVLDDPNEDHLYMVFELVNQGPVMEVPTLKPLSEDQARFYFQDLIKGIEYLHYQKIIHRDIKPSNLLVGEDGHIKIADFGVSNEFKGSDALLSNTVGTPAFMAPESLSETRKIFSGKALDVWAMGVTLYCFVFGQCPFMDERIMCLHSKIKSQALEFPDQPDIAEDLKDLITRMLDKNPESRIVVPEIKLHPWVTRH
- Test Summary: biochemical
- Settings: read-out: ΔTm (°C) 96-well
Property Measured: ΔTm at 12 µM (°C)

• Cn1cc(/C=C2\C(=O)Nc3ccc(S(N)(=O)=O)cc32)c2ccccc21 = 9.4

[I] COc1cc2c(Nc3cc(Cl)c(OC)c(Cl)c3)c(C#N)cnc2cc1OCCCN1CCN(C)CC1 [Bosutinib isomer]
[II] c1ccc(-c2cnc(Nc3ccc(OCCN4CCCC4)cc3)s2)cc1
INPUT: // returns I or II , whichever has the lower ΔTm at 12 µM Your answer should be the label of the entry you select.
OUTPUT: I
(I: 4.1 °C, II: 7.5 °C)
